Source: paper PMC9352680

Please respond with reported pKd for every item in the list.
Molecular target: T1, PUF4 RNA-binding domain (Saccharomyces cerevisiae, UniProt P25339 537-888)
T1 sequence: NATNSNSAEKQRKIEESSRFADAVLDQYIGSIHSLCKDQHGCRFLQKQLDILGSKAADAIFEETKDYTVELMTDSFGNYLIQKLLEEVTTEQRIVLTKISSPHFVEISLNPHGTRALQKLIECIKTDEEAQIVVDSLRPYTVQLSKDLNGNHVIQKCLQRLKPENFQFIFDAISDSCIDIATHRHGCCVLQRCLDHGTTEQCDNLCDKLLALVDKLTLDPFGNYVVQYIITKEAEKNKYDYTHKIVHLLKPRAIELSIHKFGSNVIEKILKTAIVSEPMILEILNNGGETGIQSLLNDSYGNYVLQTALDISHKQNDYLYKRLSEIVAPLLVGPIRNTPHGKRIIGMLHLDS
Test: Mg; RNA-MaP; 20 mM Na-HEPES pH 7.4, 30 mM KOAc, 0.75 mM MgCl2, 0.1% Tween-20, 5% glycerol, 0.1 mg/mL BSA, 2 mM DTT; 25 C; 0.0125-409.6 nM protein
Settings: tags: N-His6-TEV cleaved; C-SNAP kept, Cy3B-labelled; label: tethered on chip by stalled RNA polymerase
Numbers only, as −log10 of the molar value.

UCUCUUCUUGUACCUAUAUAUCUCUU (ssRNA) [Ie_S1_P3E.2_K3.1_C3.2_H3.1_[+4CC]_A3.1_F3.1_T3.2]
7.75
UCUCUUUGUAACCAAUCUCUU (ssRNA) [Ic_S1_P4E.1_K4.1_C4.1_H4.1_A4.1_[T5A]_[A6C]_[T7C]_F4.1_[T8A]_T4.1]
6.06
Ic_S4_P4E.1_K4.1_C4.1_H4.1_A4.1_[T5A]_[A6T]_F4.1_[T8A]_[A9T]_T4.1 (ssRNA) RNA: UUUGACAACUGAUCGUUCUUUCUUGUAAUUAUUUCUUUCUCGAUCAGUUGUCUUU
7.25
Id_ii_S2_P5E.3_K5.2_C5.2_[C-2T]_[T-1A]_H5.2_A5.1_F5.1_T5.2_[T11C]_[A12G] (ssRNA) RNA: UUUGAUUAAUAUGAUAUCGUUCUUUCUUAUAUAUUAUUACGUUCUUUCUCGAUAUCAUAUUAAUCUUU
7.71
Ib_S4_P5E.1_K5.1_C5.1_H5.1_[G2A]_A5.1_F5.1_[T8A]_T5.1 (ssRNA) RNA: UUUGACAACUGAUCGUUCUUUCUUAUAUUAAUAUUCUUUCUCGAUCAGUUGUCUUU
6.22

Now consider a different binder.
Would you kindly share the measured pKd for Id_ii_S2_P3E.2_K3.1_C3.2_[C-2A]_[T-1C]_H3.1_A3.1_F3.1_T3.2 (ssRNA) RNA: UUUGAUUAAUAUGAUAUCGUUCUUUCUACUGUAUAUAUAUUCUUUCUCGAUAUCAUAUUAAUCUUU ?
8.80
